- Protocol notes: Half-life in BALB/c mouse at 20 mg/kg, po as cyclodextrin formulation by LC-MS method
- Format: ADME, organism-based
- Condition summary: in vivo
Quantity name: half-life (min)
# number only, unit min dropped from output

Exercise: Item COc1cccc(/C=C/C(=O)c2cc(OC)c(OC)cc2O)c1 has what recorded half-life?
Key: 36.7

====

- Assayed system: CYP3A4 (Homo sapiens)
- Sequence (P08684 whole entry): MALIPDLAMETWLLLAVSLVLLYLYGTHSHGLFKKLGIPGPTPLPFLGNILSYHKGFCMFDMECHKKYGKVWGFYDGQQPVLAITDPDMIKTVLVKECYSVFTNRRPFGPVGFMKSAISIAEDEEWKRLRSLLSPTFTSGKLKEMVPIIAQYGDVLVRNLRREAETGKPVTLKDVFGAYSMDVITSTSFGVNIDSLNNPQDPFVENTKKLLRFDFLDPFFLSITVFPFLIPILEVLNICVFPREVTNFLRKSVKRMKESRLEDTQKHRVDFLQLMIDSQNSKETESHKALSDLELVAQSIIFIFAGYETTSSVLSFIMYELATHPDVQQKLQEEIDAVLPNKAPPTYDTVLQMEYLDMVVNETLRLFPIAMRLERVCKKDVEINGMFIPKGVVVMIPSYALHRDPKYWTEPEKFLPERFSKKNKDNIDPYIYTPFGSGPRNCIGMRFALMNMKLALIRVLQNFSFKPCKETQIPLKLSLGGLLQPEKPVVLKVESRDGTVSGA
- Protocol notes: Inhibition of human CYP3A4 expressed in baculovirus-infected insect cells at 10 uM using Luciferin-PFBE as substrate in presence of NADPH by P450-Glo luminescence assay relative to control
- Assay type: ADME
- Condition summary: probe Luciferin-PFBE
Quantity name: inhibition at 10 µM (%)
Hi! Could you send only the number? It should be in %, unit omitted.

The examples below pair each entry with its known result.
# Chemical structure, Value measured
data = [
    ("COc1cccc(/C=C/C(=O)c2ccccc2O)c1", -1.4),
    ("COc1ccc(/C=C/C(=O)c2ccc(OC)cc2O)cc1", 5),
    ("COc1cccc(/C=C/C(=O)c2cc(OC)ccc2O)c1", 14.3),
    ("COc1ccc(O)c(C(=O)/C=C/c2c(OC)cccc2OC)c1", 15.3),
    ("COc1ccc(C(=O)/C=C/c2c(OC)cccc2OC)c(O)c1", 11.8),
]

Exercise: May I ask what inhibition at 10 µM has been recorded for COc1ccc(O)c(C(=O)/C=C/c2cc(OC)c(OC)c(OC)c2)c1 ?
Key: -3.1

Exercise: Fill in the blank: the reported inhibition at 10 µM of COc1ccc(C(=O)/C=C/c2ccc(OC)c(OC)c2)c(O)c1 is ____.
Key: 2.4

Exercise: // lookup inhibition at 10 µM for COc1cccc(/C=C/C(=O)c2cc(OC)c(OC)cc2O)c1
Key: 12.4

Exercise: Returns the measured inhibition at 10 µM for the input molecule. Input: COc1ccc(O)c(C(=O)/C=C/c2ccc(OC)c(OC)c2)c1
Key: -2.7

Exercise: For COc1cccc(/C=C/C(=O)c2ccc(OC)cc2O)c1 , what is its reported inhibition at 10 µM?
Key: -8.3

Exercise: Recorded inhibition at 10 µM of COc1ccc(/C=C/C(=O)c2cc(OC)ccc2O)cc1 , please.
Key: 6.2

Exercise: # query: inhibition at 10 µM of entry COc1ccc(C(=O)/C=C/c2cc(OC)c(OC)c(OC)c2)c(O)c1
Key: -10

Exercise: Reported inhibition at 10 µM, molecule COc1cc(O)c(C(=O)/C=C/c2cc(OC)c(OC)c(OC)c2)cc1OC : ____
Key: 18.7

====

- Tested on: Leishmania infantum
- Protocol notes: Anti-parasitic activity against Leishmania infantum amastigotes infected in human THP1 cells at 50 uM after 5 days by Giemsa staining based assay relative to control
- Assay type: functional, cell-based
- Condition summary: THP-1, 120 h
Quantity name: inhibition at 50 µM (%)
Field: numeric (%). Do not append units.

Known results for molecules:
# Chemical structure, Assayed system, Unit of measure, inhibition at 50 µM
measured = [
    ("COc1cc(O)c(C(=O)/C=C/c2cc(OC)c(OC)c(OC)c2)cc1OC", "Leishmania infantum", "%", 88),
    ("COc1cccc(/C=C/C(=O)c2ccc(OC)cc2O)c1", "Leishmania infantum", "%", 21),
    ("COc1ccc(O)c(C(=O)/C=C/c2ccc(OC)c(OC)c2)c1", "Leishmania infantum", "%", 16),
]

Exercise: Endpoint output: inhibition at 50 µM of COc1ccc(O)c(C(=O)/C=C/c2cc(OC)c(OC)c(OC)c2)c1 . Value?
Key: 43

Exercise: For the molecule COc1ccc(C(=O)/C=C/c2cc(OC)c(OC)c(OC)c2)c(O)c1 , what inhibition at 50 µM is on record?
Key: 71

Exercise: // query inhibition at 50 µM value for entry COc1cccc(/C=C/C(=O)c2ccccc2O)c1
Key: 11

Exercise: Fill in the blank: the reported inhibition at 50 µM of COc1ccc(C(=O)/C=C/c2ccc(OC)c(OC)c2)c(O)c1 is ____.
Key: 10

Exercise: Which inhibition at 50 µM value is on record for COc1cccc(/C=C/C(=O)c2cc(OC)ccc2O)c1 ?
Key: 14

Every entry's value here was drawn from ChEMBL document CHEMBL3997782.
